Test system: P388 mouse leukemia cells
measurement_conditions: 92 h
Where a SMILES comes first, the peptide text is derived from it. [ ]: non-standard residue; d: D form. The star is where a group is joined. NHCH2CH2OH = OCCN*; For = O=C*
experimental_readout: cell viability/% (%)

compound	readout_unit	recorded_result
CC(C)C[C@@H](NC(=O)[C@H](C)NC(=O)CNC(=O)[C@@H](NC=O)C(C)C)C(=O)N[C@@H](C)C(=O)N[C@H](CC(C)C)C(=O)N[C@H](C(=O)N[C@H](CC(C)C)C(=O)N[C@@H](Cc1c[nH]c2ccccc12)C(=O)N[C@@H](C(=O)N[C@@H](Cc1c[nH]c2ccccc12)C(=O)N[C@@H](C(=O)N[C@@H](Cc1c[nH]c2ccccc12)C(=O)N[C@@H](C(=O)N[C@@H](Cc1c[nH]c2ccccc12)C(=O)NCCO)C(C)C)C(C)C)C(C)C)C(C)C [compound 7408] (For-VGA[dL]A[dL]V[dL]W[dV]W[dV]W[dV]W-NHCH2CH2OH)	%	19.4
